# System: MS2 coat protein
# TEST METHOD NOTES: apparent KD of MS2 coat protein; designed switch direction (-1 OFF switch, 1 ON switch): -1; higher = weaker reporter binding
# DETAILS: input ligand: FMN 200 uM
MEASURED PROPERTY: apparent KD of MS2 coat protein (nM)
Dear colleague, please return just the value in nM, with no unit written.

Enquiry: What does the data say about its apparent KD of MS2 coat protein? Entry: GCUGCAAGAGGAUAUACAUGAGGAUCACCCAUGUGAAAUUAUAGUGAGGAAAUGAAAAGUAGAAGGCUUGUAGA [Mod of Mat 15 - Jieux - Exclusion 3] (Eterna round: R97, puzzle: Exclusion 3)
Return: 86.6

Enquiry: What does the data say about its apparent KD of MS2 coat protein? Entry: UUGUUAUGUGUAGGAUAUGCGUGUUAUUAUUAUGCAGAAGGACAUGAGGAUCACCCAUGUGUAUUAUUAUUAUAUAUUAUAUAU [Title] (Eterna round: R96, puzzle: Exclusion NG 1)
Return: 20

Enquiry: What does the data say about its apparent KD of MS2 coat protein? Entry: AUAUAGCGAGGAUAUACAUGAGGAUCACCCAUGUGGUAGUAGAUACGGUAGAGAUAGUGUAGAAGGCGCUAUGA [EX3 #9] (Eterna round: R97, puzzle: Exclusion 3)
Return: 226

Enquiry: What does the data say about its apparent KD of MS2 coat protein? Entry: AACAGUCUAGAGGAUAUGUGCGAUUAAUAUCGUGCAGAAGGCUGGACAUGAGGAUCACCCAUGUAAAUACUACC [Omei Ex6 A16] (Eterna round: R97, puzzle: Exclusion 6)
Return: 79.4

Enquiry: What does the data say about its apparent KD of MS2 coat protein? Entry: GUCAGCUCGUGAGGAUAUACAUGAGGAUCACCCAUGUGAUCAAUAGCAGCUUCGGCUGCAUACAUGUAGAAGGCACGAGCUGAC [ENG2/6-A1] (Eterna round: R96, puzzle: Exclusion NG 2)
Return: 22.4

====

# System: MS2 coat protein
# TEST METHOD NOTES: apparent KD of MS2 coat protein; designed switch direction (-1 OFF switch, 1 ON switch): -1; higher = weaker reporter binding
# DETAILS: Eterna round: R95; input ligand: microRNA oligo, concentration not stated
Classification field. Basis: apparent KD of MS2 coat protein. Definitions: class 0 (below 20 nM), class 1 (20 nM to below 50 nM), class 2 (50 nM or more)

Worked examples follow.
>>> class_assignment("AUAAUUUAAGUGAGGAUAUACCUAUGGAAACAUAGGUAGAAGGCACAUGAGGAUCACCCAUGUUCCUAUACAAA [Fiskers BMX 4 - 1] (puzzle: Brourd's mod of Exclusion 4)")
"class 0"
>>> class_assignment("CUCUUGGCAGGAUAUGCUUUUUUAGACAUGAGGAUCACCCAUGUGAUGAAUAUUGGGUUCGCAGAAGGGCCUGAAU [JR_E5_Sub040] (puzzle: Exclusion 5)")
"class 1"

Enquiry: Which apparent KD of MS2 coat protein band matches AUAAUAAAGGAGGAUAUCGUUACGGAAACGUAACGAGAAGGUCUAACAUGAGGAUCACCCAUGUUCCUCAAAUA [Mat - Exclusion 6 - Eli Mod - D53] (puzzle: Exclusion 6) ?
Return: class 1

Enquiry: Which apparent KD of MS2 coat protein band matches CUUGUCCGAGGAUAUAUUUUGUGAUACAUGAGGAUCACCCAUGUUAUAAGAUGGAUAUAAAUAGAAGGCGGACGAG [Mat - Exclusion 5 - JL mod - D69] (puzzle: Exclusion 5) ?
Return: class 1

Enquiry: Which apparent KD of MS2 coat protein band matches UUUUAACAUGAGGAUCACCCAUGUGAGGAUAUCGAAAUUUAUAUUAAUAUUUUUAAAUCGAGAAGGCACAUUUU [JMF 68] (puzzle: Exclusion 1) ?
Return: class 2

Enquiry: Which apparent KD of MS2 coat protein band matches CUGUACAUAGGAUAUAGUUGCUUUUACAUGAGGAUCACCCAUGUCACUCCUCUCUCUCUUCUAGAAGGAUGUUUCU [JR_E5_Sub009] (puzzle: Exclusion 5) ?
Return: class 2

Enquiry: Which apparent KD of MS2 coat protein band matches GAAAAGGUAGGAUAUACGAAAAAAAAGGGUAGAAUAAAAACACAUGAGGAUCACCCAUGUAGAAGGACCAAAAG [salish99_ex2_r3_077] (puzzle: Exclusion 2) ?
Return: class 1

Enquiry: Which apparent KD of MS2 coat protein band matches GAUCAACAUGAGGAUCACCCAUGUGAGGAUAUGUAUCAUAGAUCUUCGGAUCUAUGAUACAGAAGGCAUGUGGA [Ex1-3: 100c] (puzzle: Exclusion 1) ?
Return: class 2

Enquiry: Which apparent KD of MS2 coat protein band matches ACCUCACAUGAGGAUCACCCAUGUCAGGAUAUACAAACCGUGAUAAGACACGGUCGUAGUAGAAGGGACUAUGG [Xerereonte] (puzzle: Exclusion 1) ?
Return: class 2

These entries and their values trace back to the supplement of paper PMC9170038.
